These data points were gathered from patent US20240400614A1.

Target: MMP-7 (Homo sapiens)
Construct: purchased SIGMA CC1059
Sequence (P09237 95-267): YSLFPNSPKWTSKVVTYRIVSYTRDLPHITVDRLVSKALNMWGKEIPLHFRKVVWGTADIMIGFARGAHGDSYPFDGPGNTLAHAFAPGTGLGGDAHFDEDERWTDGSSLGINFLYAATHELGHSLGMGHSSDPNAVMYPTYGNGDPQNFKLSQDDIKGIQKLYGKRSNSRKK
Experiment: FRET peptide cleavage efficiency with MMP-7 (standard pH 7.5; also pH 6.5)
Assay type: biochemical
Settings: t = 120 min (Table 9)
Square brackets hold non-standard residues; d marks the D form. Ends that are not written are not given here. Tyr(3-NO2) = N[C@@H](Cc1ccc(O)c([N+](=O)[O-])c1)C(=O)O; 2Abz = Nc1ccccc1C(=O)O
Reported % cleavage MMP-7 t = 120 min values for a set of substances
The reply should be a number in %, with the unit left off.

Below, each entry is followed by its recorded % cleavage MMP-7 t = 120 min result.
>  <Substance>
RGRRVANLVG ([2Abz]RGRRVANLVG[Tyr(3-NO2)]-NH2) [LNK033]

>  <Study target>
MMP-7 (Homo sapiens)

>  <Recorded value>
98

$$$$
>  <Substance>
RQRKVANLVG ([2Abz]RQRKVANLVG[Tyr(3-NO2)]-NH2) [LNK032]

>  <Study target>
MMP-7 (Homo sapiens)

>  <Recorded value>
95

$$$$
>  <Substance>
RGRRPLGLAGGSG ([2Abz]RGRRPLGLAGGSG[Tyr(3-NO2)]-NH2) [LNK051]

>  <Study target>
MMP-7 (Homo sapiens)

>  <Recorded value>
14

$$$$
>  <Substance>
SGRVYMLQG ([2Abz]SGRVYMLQG[Tyr(3-NO2)]-NH2) [LNK044]

>  <Study target>
MMP-7 (Homo sapiens)

>  <Recorded value>
9

$$$$
>  <Substance>
RGRKPYMLQG ([2Abz]RGRKPYMLQG[Tyr(3-NO2)]-NH2) [LNK035]

>  <Study target>
MMP-7 (Homo sapiens)

>  <Recorded value>
95

$$$$

Asked: For the substance SGRVAPYMLQG ([2Abz]SGRVAPYMLQG[Tyr(3-NO2)]-NH2) [LNK042] , give its measured % cleavage MMP-7 t = 120 min value.
Given back: 100

Asked: For the substance RSSYRSL ([2Abz]RSSYRSL[Tyr(3-NO2)]-NH2) [LNK075] , give its measured % cleavage MMP-7 t = 120 min value.
Given back: 0

Asked: For the substance SGRVAGLVG ([2Abz]SGRVAGLVG[Tyr(3-NO2)]-NH2) [LNK016] , give its measured % cleavage MMP-7 t = 120 min value.
Given back: 70

Asked: For the substance GSGSGSGS ([2Abz]GSGSGSGS[Tyr(3-NO2)]-NH2) [LNK064] , give its measured % cleavage MMP-7 t = 120 min value.
Given back: 0

Asked: For the substance RQRRSPLGLAG ([2Abz]RQRRSPLGLAG[Tyr(3-NO2)]-NH2) [LNK010] , give its measured % cleavage MMP-7 t = 120 min value.
Given back: 78
